- MEASUREMENT_DESCRIPTION: Pharmacokinetics of Docetaxel in plasma of rabbits
- Type: in vivo, New Zealand rabbits
- CONDITION_SUMMARY: New Zealand, rabbit, iv, 2.5 mg/kg, 2.5 mg/kg DCX, read-out: t1/2d: Distribution half-life (converted)
MEASUREMENT_LABEL: half-life (min)

- CC(=O)O[C@@]12CO[C@@H]1C[C@H](O)[C@@]1(C)C(=O)[C@H](O)C3=C(C)[C@@H](OC(=O)[C@H](O)[C@@H](NC(=O)OC(C)(C)C)c4ccccc4)C[C@@](O)([C@@H](OC(=O)c4ccccc4)[C@H]21)C3(C)C: 32.4

---

- MEASUREMENT_DESCRIPTION: Pharmacokinetics of Docetaxel in plasma of rabbits
- Type: in vivo, New Zealand rabbits
- CONDITION_SUMMARY: New Zealand, rabbit, iv, 2.5 mg/kg, 2.5 mg/kg DCX, read-out: t1/2e1: Elimination half-life (converted)
MEASUREMENT_LABEL: half-life (h)

• CC(=O)O[C@@]12CO[C@@H]1C[C@H](O)[C@@]1(C)C(=O)[C@H](O)C3=C(C)[C@@H](OC(=O)[C@H](O)[C@@H](NC(=O)OC(C)(C)C)c4ccccc4)C[C@@](O)([C@@H](OC(=O)c4ccccc4)[C@H]21)C3(C)C = 19.7
